# ASSAY DETAILS: NCI Yeast Anticancer Drug Screen. Data for the mlh1 rad18 strain (AID 175)
# DETAILS: S. cerevisiae mlh1 rad18 strain growth inhibition; at 5.0 µM (retest, dose inferred, filed as 0.5); stronger effect = higher value
# Procedure: Growth inhibition of yeast strains with defined genetic alterations is measured as a screen for potential anti-cancer activity. Selected strains with alterations in DNA damage repair or cell cycle control were exposed to compounds and growth inhibition was measured relative to vehicle treated controls. The strain used in this assay is mlh1 rad18
This is part of a sample that, as a whole, favours compounds with a hit. Of some 79,000 tested, about 15% had one in any assay.
PARAMETER: growth inhibition (%)

molecule=Cc1ccc(Sc2ccc(C)cc2[N+](=O)[O-])c([N+](=O)[O-])c1 parameter="growth inhibition" val=43
molecule=CCN(CC)c1ccc(/C=C2/C[N+](C)(C)C/C(=C/c3ccc(N(CC)CC)cc3)C2=O)cc1 parameter="growth inhibition" val=-6
molecule=O=S(=O)(Nc1ccccc1)c1ccccc1C#Cc1ccccc1 parameter="growth inhibition" val=3
molecule=CS(=O)(=O)C(c1nc2nnc(NC(=O)Nc3ccc(Cl)cc3)n2[nH]c1=O)c1nc2nnc(NC(=O)Nc3ccc(Cl)cc3)n2[nH]c1=O parameter="growth inhibition" val=-19
molecule="CC(O)C(O)C(O)C(O)C(O)C(=O)O (stereo not drawn)" parameter="growth inhibition" val=-1
molecule="CC(NC(=O)OCc1ccccc1)C(=O)NC(Cc1ccccc1)C(=O)OCc1ccccc1 (stereo not drawn)" parameter="growth inhibition" val=1
molecule=CCCN(CCC)C(=O)c1cccc2ccccc12 parameter="growth inhibition" val=6
molecule="CCO/C=C1\\C(=O)C=C(C)CC1c1ccc(OC)c(OC)c1OC (stereo not drawn)" parameter="growth inhibition" val=4
molecule=CCN(CC)CCNC(=O)c1ccc(N=Cc2cc(Cl)cc(Cl)c2O)cc1 parameter="growth inhibition" val=46
molecule=Oc1ccc2ccccc2c1/C=N\Sc1ccccc1 parameter="growth inhibition" val=6
molecule=CCCCCCCCCc1ccc(O)c(Cl)c1 parameter="growth inhibition" val=-9
molecule=COc1ccc(/C=C/c2ccnc3ccccc23)cc1 parameter="growth inhibition" val=29
molecule=CC(C)C(O)C(C)C parameter="growth inhibition" val=4
molecule=COc1ccc(/C=C/c2ccnnc2)c(OC)c1OC parameter="growth inhibition" val=-6
molecule=O=C(O)CNc1ccc2c(c1)Cc1cc(Br)ccc1-2 parameter="growth inhibition" val=45
molecule="COc1ccc(C2=CCC3C4CC=C5CC(O)CCC5(C)C4CCC23C)s1 (stereo not drawn)" parameter="growth inhibition" val=19
molecule=CCC[CH2][Sn]([CH2]CCC)([O]C(=O)c1ccc(C)c(N)c1)[O]C(=O)c1ccc(C)c(N)c1 parameter="growth inhibition" val=97
molecule="S=C1NC2=C(COC/C2=C\\c2ccccc2Cl)C(c2ccccc2Cl)N1 (stereo not drawn)" parameter="growth inhibition" val=92
molecule=O=C(NNc1nc(-c2ccccc2)cs1)C(F)(F)F parameter="growth inhibition" val=93
molecule="NC1=NC2=C(CCCC2)C(c2cccs2)S1 (stereo not drawn)" parameter="growth inhibition" val=61
molecule=CC(=O)Nc1ccc(-c2csc(Nc3ccnc4cc(Cl)ccc34)n2)cc1 parameter="growth inhibition" val=3
molecule="CCOC(=O)Nc1cc2c(cc1Br)-c1ccccc1C2O (stereo not drawn)" parameter="growth inhibition" val=-2
molecule=O=C(O)c1ccccc1SC(Sc1ccccc1C(=O)O)c1cccc(Cl)c1 parameter="growth inhibition" val=15
